biological target: UniProt:Q8NER1; assay: Radioligand Binding Assay and Antagonist Ca2+ Influx Functional Assay; details: pH 7.4; 25 °C
Sequence (Q8NER1 whole entry): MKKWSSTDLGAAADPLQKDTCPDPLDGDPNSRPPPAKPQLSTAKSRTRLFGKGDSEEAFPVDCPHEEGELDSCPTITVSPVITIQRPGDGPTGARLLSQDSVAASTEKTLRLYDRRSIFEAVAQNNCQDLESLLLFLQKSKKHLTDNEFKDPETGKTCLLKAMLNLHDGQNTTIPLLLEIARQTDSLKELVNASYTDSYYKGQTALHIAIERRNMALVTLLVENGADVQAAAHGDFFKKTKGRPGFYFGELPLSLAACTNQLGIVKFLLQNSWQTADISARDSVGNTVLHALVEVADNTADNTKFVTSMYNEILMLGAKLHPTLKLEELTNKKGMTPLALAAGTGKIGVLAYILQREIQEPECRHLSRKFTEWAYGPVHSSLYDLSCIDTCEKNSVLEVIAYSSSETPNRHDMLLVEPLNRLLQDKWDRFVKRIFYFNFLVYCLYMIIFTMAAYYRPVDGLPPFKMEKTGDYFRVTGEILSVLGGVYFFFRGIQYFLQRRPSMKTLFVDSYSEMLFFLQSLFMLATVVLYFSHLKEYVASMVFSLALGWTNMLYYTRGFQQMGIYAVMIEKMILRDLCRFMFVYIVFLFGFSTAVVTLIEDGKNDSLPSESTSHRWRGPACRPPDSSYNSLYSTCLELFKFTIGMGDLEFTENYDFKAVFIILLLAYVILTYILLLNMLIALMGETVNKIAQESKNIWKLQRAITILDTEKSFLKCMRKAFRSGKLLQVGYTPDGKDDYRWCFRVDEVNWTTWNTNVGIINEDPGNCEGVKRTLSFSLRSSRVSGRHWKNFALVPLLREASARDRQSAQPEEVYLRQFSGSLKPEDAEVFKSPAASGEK
pEC50: −log10 of the molar value.
MEASUREMENT_NAME: pEC50

O=C(Nc1cccc2cnccc12)N[C@H]1CCc2cc(F)ccc2[C@H]1Cc1cccc(C(F)(F)F)c1    7.34
O=C(NCc1ccc(C(F)(F)F)cc1)Nc1cccc2cnccc12    7.96
O=C(Nc1ccc(S(=O)(=O)C(F)(F)F)cc1)C1=CCN(c2ncccc2C(F)(F)F)CC1    7.13

P. CC(C)(C)c1ccc2c(c1)CC[C@H]2NC(=O)Nc1cccc2cnccc12
Q. Oc1cc2c(cc1O)CN(C(=S)NCCc1ccc(Cl)cc1)CCC2
R. CC(C)(C)c1ccc2c(c1)CC[C@@H]2NC(=O)Nc1cccc2cnccc12
S. CCN(CCNC(=O)Nc1ccccc1Br)c1cccc(C)c1
Ascending by pEC50, please: list the compounds accordingly. Your task in answering is to list the labels in the requested order. Q, S, R, P
